- ASSAY SYSTEM: UniProtKB P25103
- Sequence (P25103 whole entry): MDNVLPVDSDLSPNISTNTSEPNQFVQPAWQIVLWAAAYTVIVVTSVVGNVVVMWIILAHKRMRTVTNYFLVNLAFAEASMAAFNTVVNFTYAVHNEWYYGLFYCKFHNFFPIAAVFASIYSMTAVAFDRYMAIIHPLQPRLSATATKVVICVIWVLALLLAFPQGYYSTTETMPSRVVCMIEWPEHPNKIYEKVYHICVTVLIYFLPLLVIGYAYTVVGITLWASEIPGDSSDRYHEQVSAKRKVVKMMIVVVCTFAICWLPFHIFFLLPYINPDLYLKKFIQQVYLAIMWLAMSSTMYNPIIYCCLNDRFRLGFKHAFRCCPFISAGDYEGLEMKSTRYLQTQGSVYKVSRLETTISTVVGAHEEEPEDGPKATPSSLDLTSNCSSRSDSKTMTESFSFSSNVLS
- ASSAY PROTOCOL: Binding affinity at human tachykinin receptor 1 by measuring its ability to displace [125I]-labeled substance P from the cloned receptor expressed in CHO cells.
pIC50: −log10 of the molar value.
// label = y if pIC50 is not less than 8, otherwise n

TEST SMILES: Cc1cc(COCC2(c3ccccc3)CCNCC2)cc(C(C)(C)C)c1
QUALITATIVE LABEL: y
//
TEST SMILES: FC(F)(F)c1cc(CCCC2(c3ccccc3)CCNCC2)cc(C(F)(F)F)c1
QUALITATIVE LABEL: n
//
TEST SMILES: O=C(Cn1ccnc1)N1CCC(COCc2cc(C(F)(F)F)cc(C(F)(F)F)c2)(c2ccccc2)CC1
QUALITATIVE LABEL: y
//
TEST SMILES: O=C(Cc1ccncc1)N1CCC(COCc2cc(C(F)(F)F)cc(C(F)(F)F)c2)(c2ccccc2)CC1
QUALITATIVE LABEL: y
//
TEST SMILES: O=C(Cc1cccnc1)N1CCC(COCc2cc(C(F)(F)F)cc(C(F)(F)F)c2)(c2ccccc2)CC1
QUALITATIVE LABEL: y
//
TEST SMILES: CS(=O)(=O)N1CCC(COCc2cc(C(F)(F)F)cc(C(F)(F)F)c2)(c2ccccc2)CC1
QUALITATIVE LABEL: y
